System: Ps. aeruginosa AKR17
Assay: in vitro antibacterial activity, agar plate dilution method (MIC)
Type: cell-based, Pseudomonas aeruginosa
Conditions: Pseudomonas aeruginosa, AKR17, 16 h, read-out: Minimum Inhibitory Concentration (MIC), Ps. aeruginosa AKR17; 10^6 CFU/ml
property: MIC (µg/mL)
Just the number please, in µg/mL, no unit attached.

For the compound Nc1nc(C(=NOC2(C(=O)O)CC2)C(=O)NC2C(=O)N3C(C(=O)O)=C(CSc4nc(-c5ccc(O)c(O)c5)cs4)CSC23)cs1 (stereo not drawn) [Ex. 45] , give its measured MIC value. 6.25

Return the recorded MIC value; entry: CC(C)(O/N=C(\C(=O)N[C@@H]1C(=O)N2C(C(=O)O)=C(CSc3nnc(-c4ccc(O)c(O)c4)s3)CS[C@H]12)c1csc(N)n1)C(=O)O [Ex. 34] 1.56

# return recorded MIC for input CC(C)(ON=C(C(=O)NC1C(=O)N2C(C(=O)O)=C(CSc3nc(-c4ccc(O)c(O)c4)c(CC(=O)O)s3)CSC12)c1csc(N)n1)C(=O)O (stereo not drawn) [Example 59 (I)] 1.56

Respond only with MIC recorded for CC(=O)Oc1ccc(-c2nc(SCC3=C(C(=O)O)N4C(=O)C(NC(=O)C(=NOC(C)(C)C(=O)O)c5csc(N)n5)C4SC3)sc2CC(=O)O)cc1OC(C)=O (stereo not drawn) [Example 59 (II)] 1.56

State its MIC for this compound: Nc1nc(/C(=N/OC2(C(=O)O)CC2)C(=O)N[C@@H]2C(=O)N3C(C(=O)O)=C(CSc4nnc(-c5ccc(O)c(O)c5)s4)CS[C@H]23)cs1 [Ex. 35] 1.56

Return MIC (reported value) for this compound: Nc1nc(/C(=N/OC(C(=O)O)c2ccccc2)C(=O)N[C@@H]2C(=O)N3C(C(=O)O)=C(CSc4nnc(-c5ccc(O)c(O)c5)o4)CS[C@H]23)cs1 (stereo partly drawn) [Ex. 15] 0.78
